System: RXF 393 renal
assay info: NCI tumour cell line growth inhibition, 48 h; in the data active = GI50 below about 0.43 µM; inactive = the rest
Output constraint: value belongs to active, inactive

Look over these answered cases.
compound: OCc1cccc(-c2ccc3ncc(-c4nc(NC5CC5)ncc4F)n3c2)c1
assigned category: active
//
compound: CCc1ccc(-c2ccc(=O)n(-c3ccc(S(N)(=O)=O)cc3)n2)cc1
assigned category: inactive
//
compound: O=S1(=O)N(Cc2ccccc2)[C@@H](Cc2ccccc2)C2O[C@H]2[C@H](Cc2ccccc2)N1Cc1ccccc1 (stereo partly specified)
assigned category: inactive
//
compound: Nc1ccc(N=Nc2ccccc2)c(N)n1
assigned category: inactive
//
compound: O=c1[nH]cnc2c1nnn2C1OC(CO)C(O)C1O (stereo unspecified)
assigned category: inactive
//
compound: Nc1ccccc1NC(=O)CCCCCCC(=O)Nc1ccc2c(c1)/C(=C/c1ccc[nH]1)C(=O)N2
assigned category: inactive
//
compound: Cc1cccc2nc3cccc(C(=O)NCCC[N+](C)(CCCNC(=O)c4cccc5nc6cccc(C)c6nc45)Cc4c([N+](=O)[O-])ncn4C)c3nc12
assigned category: inactive
//
compound: CCCCCCCCCCCCCCCC(=O)OCC1OC(n2cnc3c(=S)nc(N)[nH]c32)C(OC(=O)CCCCCCCCCCCCCCC)C1OC(=O)CCCCCCCCCCCCCCC (stereo unspecified)
assigned category: inactive

Lookup: Outcome logged for COc1cc2c(c(OC)c1OC)-c1ccc(NNC(=S)N(Cc3cccc(C[N+](Cc4cccc(CNC56CC7CC(CC(C7)C5)C6)c4)(Cc4cccc(CNC56CC7CC(CC(C7)C5)C6)c4)Cc4cccc(CN(C(=S)NNc5ccc6c(cc5=O)[C@@H](NC(C)=O)CCc5cc(OC)c(OC)c(OC)c5-6)C56CC7CC(CC(C7)C5)C6)c4)c3)C34CC5CC(CC(C5)C3)C4)c(=O)cc1[C@@H](NC(C)=O)CC2 (stereo partly specified) in this assay:
Found: inactive

Lookup: Returns: the outcome recorded for `COc1cc(N=Nc2ccccc2)cc(/C=N\[N-]C(N)=S)c1[O-].COc1cc(N=Nc2ccccc2)cc(/C=N\[N-]C(N)=S)c1[O-].[Fe+4]` in this assay.
Found: inactive

Lookup: Check the results log: what was the call for NC(=O)C(Br)CBr (stereo unspecified) ?
Found: inactive

---

Test system: OVCAR-8 ovarian
assay info: NCI tumour cell line growth inhibition, 48 h
parameter: TGI

Below, 3 molecules whose answers are already recorded.
molecule: NC(c1ccccc1)(C(F)(F)F)P1(=O)OC(=O)c2ccccc2O1 (stereo not given)
TGI: > 100 µM
--
molecule: O=C(Nc1c(Cl)cc([N+](=O)[O-])cc1Cl)C(=O)C1C(=O)NC(=S)NC1=O
TGI: > 100 µM
--
molecule: CN1C/C(=C\c2ccc(Cl)cc2)C(=O)/C(=C/c2ccc(Cl)cc2)C1
TGI: 0.605 µM

TGI measured on `Oc1ccc2occ3c2c1CCC3` = > 100 µM

Reported TGI ( CCOC(=O)C(NC(=O)CC(C)C)(Nc1ccc(C(F)(F)F)cc1)C(F)(F)F (stereo not given) ) = > 100 µM

// sample CC(C)COC(=O)N1N=NC2C3OC(CC3=O)C21 (stereo not given) , its TGI was > 100 µM

molecule `COc1c(OC)c(O)c2c(=O)c(OC)c(-c3ccc4c(c3)OCO4)oc2c1O` , TGI observed: > 100 µM

Entry Fc1ccc(C2CC(c3cccc(Nc4ccncc4)c3)=NN2c2cc(Cl)cc(Cl)c2)cc1 (stereo not given) — recorded TGI = 4.77 µM

Reported TGI for `CC(C)(C)n1c(=O)n(C(=O)C(Cl)(Cl)Cl)n(C(=O)C(Cl)(Cl)Cl)c1=O` was > 100 µM

Item: `N#Cc1c(N2CCCC2)ncn(Cc2ccccc2)c1=S` | TGI: > 100 µM
